target under test: Neuropeptide FF receptor 2 (Homo sapiens)
Sequence (Q9Y5X5 whole entry): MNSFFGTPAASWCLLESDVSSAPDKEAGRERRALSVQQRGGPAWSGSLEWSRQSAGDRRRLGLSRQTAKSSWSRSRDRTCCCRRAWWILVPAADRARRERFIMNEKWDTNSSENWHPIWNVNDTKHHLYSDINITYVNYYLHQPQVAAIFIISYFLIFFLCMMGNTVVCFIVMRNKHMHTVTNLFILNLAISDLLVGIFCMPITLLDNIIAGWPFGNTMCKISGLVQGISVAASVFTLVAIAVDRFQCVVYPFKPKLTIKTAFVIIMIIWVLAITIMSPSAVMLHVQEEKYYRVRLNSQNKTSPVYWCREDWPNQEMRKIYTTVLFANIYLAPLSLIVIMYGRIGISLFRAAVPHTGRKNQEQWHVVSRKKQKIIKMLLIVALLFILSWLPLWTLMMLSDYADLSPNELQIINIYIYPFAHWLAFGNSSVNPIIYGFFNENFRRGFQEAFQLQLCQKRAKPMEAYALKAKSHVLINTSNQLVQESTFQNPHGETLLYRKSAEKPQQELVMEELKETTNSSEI
test details: Displacement of [3H]FFRF-NH2 from human flag-tagged NPFF2 receptor expressed in CHO cells at 5 uM by scintillation counting
Assay type: cell-based
Overview of recorded inhibition for various compounds
endpoint: inhibition

>  <mol smiles>
N=C(N)NCCC[C@@H](NC(=O)c1ccccc1)C(=O)N[C@@H](Cc1ccccc1)C(N)=O

>  <endpoint>
inhibition

>  <obs value>
92%

$$$$
>  <mol smiles>
COc1ccc(/C=C/C(=O)N[C@@H](CCCNC(=N)N)C(=O)N[C@@H](Cc2ccccc2)C(N)=O)cc1

>  <endpoint>
inhibition

>  <obs value>
64%

$$$$
>  <mol smiles>
N=C(N)NCCC[C@H](NC(=O)/C=C/c1cccc(O)c1)C(=O)N[C@@H](Cc1ccccc1)C(N)=O

>  <endpoint>
inhibition

>  <obs value>
47%

$$$$
>  <mol smiles>
N=C(N)NCCC[C@@H](NC(=O)C(c1ccccc1)c1ccccc1)C(=O)N[C@H](Cc1ccccc1)C(N)=O

>  <endpoint>
inhibition

>  <obs value>
46%

$$$$

Entry source: ChEMBL document CHEMBL2203185
